target: Sander vitreus (blue walleye) Sandercyanin fluorescent protein (SFP), wild type, SEQ ID NO:1 (recombinant without signal peptide SEQ ID NO:31) (Sander vitreus); construct: apo monomer, tetramer with biliverdin; experiment: Binding of biliverdin to (apo) Sandercyanin by fluorescence titration; conditions: affinity of apoSFP towards BV using fluorescence; pH 7.5, room temperature
Sequence (A0A1D5B367 1-170): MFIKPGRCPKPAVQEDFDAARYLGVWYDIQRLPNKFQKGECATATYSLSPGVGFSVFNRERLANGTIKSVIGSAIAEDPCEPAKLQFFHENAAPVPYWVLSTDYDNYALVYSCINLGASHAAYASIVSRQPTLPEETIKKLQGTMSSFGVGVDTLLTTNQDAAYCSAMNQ
PROPERTY_NAME: Kd (µM)
Field format: number, assumed µM, no unit text.

Entry under review: C=CC1=C(C)/C(=C/C2=NC(=C\c3[nH]c(/C=C4\NC(=O)C(C)=C4C=C)c(C)c3CCC(=O)O)/C(CCC(=O)O)=C2C)NC1=O [BV, Biliverdin IXα] . Reported Kd?
6

* * *

Molecular target: Sander vitreus Sandercyanin fluorescent protein (SFP) variant SFP-V71E (mSFP1), SEQ ID NO:2 (Sander vitreus, UniProt A0A1D5B367, V52E)
Sequence (A0A1D5B367 entry or part of it V52E): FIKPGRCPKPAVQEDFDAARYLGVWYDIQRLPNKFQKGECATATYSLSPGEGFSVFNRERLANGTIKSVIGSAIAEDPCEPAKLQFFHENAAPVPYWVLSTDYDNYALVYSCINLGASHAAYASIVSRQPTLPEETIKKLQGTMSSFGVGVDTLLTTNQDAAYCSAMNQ
Experiment: Biliverdin binding of monomeric SFP variant
Experimental: All experiments were performed with purified SFP samples (apo and holo forms) at pH 7.5 and room temperature. UV-Visible absorbance spectra of native and recombinant SFP were recorded from 800 to 200 nm with ultraspec 2100 pro spectrophotometer from Amersham Biosciences. CD spectra were measured on JASCO J-815 Spectropolarimeter. Steady state fluorescence, excitation, binding and photobleaching studies were monitored on Horiba Jobin Yvon Fluoromax-4 fluorimeter. […]
pKd: −log10 of the molar value.
PROPERTY_NAME: pKd

Entry under review: `C=CC1=C(C)/C(=C/C2=NC(=C\c3[nH]c(/C=C4\NC(=O)C(C)=C4C=C)c(C)c3CCC(=O)O)/C(CCC(=O)O)=C2C)NC1=O` . Reported pKd?
5.22 to 5.40

Values compiled from patent US10962528B2.
